# procedure summary: Pharmacokinetic determination in SD rats (i.v. and i.g.)
# Assay type: in vivo
# condition parameters: male, Sprague-Dawley (SD), rat, plasma, iv, 1 mg/kg
Decision: clearance beneath 4 mL/min/kg gives Satisfied; clearance meeting or exceeding 4 mL/min/kg gives Not satisfied.

# input Hello, I'm reviewing records and need to know if clearance of O=C1c2ccc(Oc3c(Cl)cc(-n4ncc(=O)[nH]c4=O)cc3Cl)cc2CCN1c1cccnc1 is below 4 mL/min/kg. Could you check?
# output Not satisfied

# input What do you have for O=C1c2ccc(Oc3c(Cl)cc(-n4ncc(=O)[nH]c4=O)cc3Cl)cc2CCN1Cc1ccccn1 ?
# output Satisfied

# input What do you have for O=C1c2ccc(Oc3c(Cl)cc(-n4ncc(=O)[nH]c4=O)cc3Cl)cc2CCN1c1ccccc1F ?
# output Not satisfied

# input What do you have for O=C1c2ccc(Oc3c(Cl)cc(-n4ncc(=O)[nH]c4=O)cc3Cl)cc2CCN1Cc1ccc(Cl)cc1 ?
# output Satisfied

# input What do you have for O=C1c2ccc(Oc3c(Cl)cc(-n4ncc(=O)[nH]c4=O)cc3Cl)cc2CCN1Cc1ccncc1 ?
# output Not satisfied

###

Each item that follows carries a reported AUC(0-inf).
# procedure summary: Pharmacokinetic determination in SD rats (i.v. and i.g.)
# Format: in vivo
# condition parameters: male, Sprague-Dawley (SD), rat, plasma, po, ig, 5 mg/kg
# Method: Test purposes: The following method was used to determine the pharmacokinetics of the compound of the present invention. […] Samples were processed by liquid-liquid extraction, chromatographically separated, quantitatively analyzed by multiple reaction ion monitoring (MRM) on a triple quadrupole tandem mass spectrometer, and the concentration of the results was calculated by instrument quantitative software. […]
Please give a number only; it is taken to be in ng·h/mL.

> print(dat)
                                   molecule  recorded.endpoint  test.result
1  O=C1c2ccc(Oc3c(Cl)cc(-n4ncc(=O)[nH]c4=O)cc3Cl)cc2CCN1Cc1cccc(OC(F)(F)F)c1 [Example 43]         AUC(0-inf)       212000
2  O=C1c2ccc(Oc3c(Cl)cc(-n4ncc(=O)[nH]c4=O)cc3Cl)cc2CCN1c1cccnc1 [Example 49]         AUC(0-inf)        25800
3  O=C1c2ccc(Oc3c(Cl)cc(-n4ncc(=O)[nH]c4=O)cc3Cl)cc2CCN1Cc1cccnc1 [Example 45]         AUC(0-inf)        20600
4  O=C1c2ccc(Oc3c(Cl)cc(-n4ncc(=O)[nH]c4=O)cc3Cl)cc2CCN1Cc1ccc(Cl)cc1 [Example 37]         AUC(0-inf)       122000
5  Cc1ccc(CN2CCc3cc(Oc4c(Cl)cc(-n5ncc(=O)[nH]c5=O)cc4Cl)ccc3C2=O)cc1 [Example 21]         AUC(0-inf)         4180

# input Bench note: what AUC(0-inf) did O=C1c2ccc(Oc3c(Cl)cc(-n4ncc(=O)[nH]c4=O)cc3Cl)cc2CCN1c1cccc(F)c1 [Example 42] show?
# output 13200

# input What do you have for O=C1c2ccc(Oc3c(Cl)cc(-n4ncc(=O)[nH]c4=O)cc3Cl)cc2CCN1c1ccc(F)cc1 [Example 28] ?
# output 47000

# input What do you have for O=C1c2ccc(Oc3c(Cl)cc(-n4ncc(=O)[nH]c4=O)cc3Cl)cc2CCN1Cc1cccc(C(F)(F)F)c1 [Example 34] ?
# output 124000

###

# measurement target: TRβ (Homo sapiens)
# Construct: 5 μL of 4×TR beta/alfa-LBD; purchased Invitrogen PV4686
# Sequence (P10828 217-461 limits assumed): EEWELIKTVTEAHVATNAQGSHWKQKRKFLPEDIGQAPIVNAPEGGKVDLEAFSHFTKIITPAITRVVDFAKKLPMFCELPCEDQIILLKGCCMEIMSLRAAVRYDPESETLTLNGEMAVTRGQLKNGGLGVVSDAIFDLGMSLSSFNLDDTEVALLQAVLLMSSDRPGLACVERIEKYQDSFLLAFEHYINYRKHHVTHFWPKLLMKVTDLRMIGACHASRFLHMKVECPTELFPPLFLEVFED
# procedure summary: LanthaScreen TR-FRET Thyroid Receptor beta Coactivator Assay (in vitro binding activity)
# condition parameters: TR beta-LBD
Each item that follows carries a reported EC50.
Please give a number only; it is taken to be in µM.

Reference set, count: 5
> print(dat)
                                   compound  recorded.endpoint  readout.unit  test.result
1  Cc1ccc(F)cc1CN1CCc2cc(Oc3c(Cl)cc(-n4nc(C#N)c(=O)[nH]c4=O)cc3Cl)ccc2C1=O [Example 40d]               EC50            µM        0.035
2  O=C1c2ccc(Oc3c(Cl)cc(-n4ncc(=O)[nH]c4=O)cc3Cl)cc2CCN1c1cccnc1               EC50            µM        0.107
3  N#Cc1nn(-c2cc(Cl)c(Oc3ccc4c(c3)CCN(Cc3ccccc3F)C4=O)c(Cl)c2)c(=O)[nH]c1=O [Example 33d]               EC50            µM         0.11
4  O=C1c2ccc(Oc3c(Cl)cc(-n4ncc(=O)[nH]c4=O)cc3Cl)cc2CCN1c1ncccn1               EC50            µM         0.12
5  CN1CCc2cc(Oc3c(Cl)cc(-n4nc(C#N)c(=O)[nH]c4=O)cc3Cl)ccc2C1=O               EC50            µM          0.1

# input Bench note: what EC50 did N#Cc1nn(-c2cc(Cl)c(Oc3ccc4c(c3)CCN(c3cccnc3)C4=O)c(Cl)c2)c(=O)[nH]c1=O [Example 49f] show?
# output 0.769

# input What do you have for N#Cc1nn(-c2cc(Cl)c(Oc3ccc4c(=O)[nH]ccc4c3)c(Cl)c2)c(=O)[nH]c1=O ?
# output 0.501

# input What do you have for O=C1c2ccc(Oc3c(Cl)cc(-n4ncc(=O)[nH]c4=O)cc3Cl)cc2CCN1c1ccncc1 ?
# output 0.065

# input What do you have for O=C1c2ccc(Oc3c(Cl)cc(-n4ncc(=O)[nH]c4=O)cc3Cl)cc2CCN1Cc1ccncc1 ?
# output 0.075

# input What do you have for N#Cc1nn(-c2cc(Cl)c(Oc3ccc4c(c3)CCN(C=O)C4=O)c(Cl)c2)c(=O)[nH]c1=O ?
# output 0.904

# input What do you have for N#Cc1nn(-c2cc(Cl)c(Oc3ccc4c(c3)CCN(Cc3cc(F)cc(F)c3)C4=O)c(Cl)c2)c(=O)[nH]c1=O [Example 32d] ?
# output 0.054

# input What do you have for N#Cc1nn(-c2cc(Cl)c(Oc3ccc4c(c3)CCN(CC3CCOCC3)C4=O)c(Cl)c2)c(=O)[nH]c1=O ?
# output 0.021

# input What do you have for N#Cc1nn(-c2cc(Cl)c(Oc3ccc4c(c3)CCN(Cc3ccc(F)c(Cl)c3)C4=O)c(Cl)c2)c(=O)[nH]c1=O [Example 35d] ?
# output 0.08

###

# procedure summary: Pharmacokinetic determination in SD rats (i.v. and i.g.)
# Assay type: in vivo
# condition parameters: male, Sprague-Dawley (SD), rat, plasma, iv, 1 mg/kg
recorded endpoint: log10 of AUC(0-t) (log10 of the value in ng·h/mL)
Heads up, the numbers here are log10 of AUC(0-t) in ng·h/mL units.

> print(dat)
                                smiles.data  test.result
1  O=C1c2ccc(Oc3c(Cl)cc(-n4ncc(=O)[nH]c4=O)cc3Cl)cc2CCN1Cc1cccc(C(F)(F)F)c1         4.27

Then this compound:
# input Bench note: what log10 of AUC(0-t) did O=C1c2ccc(Oc3c(Cl)cc(-n4ncc(=O)[nH]c4=O)cc3Cl)cc2CCN1Cc1cccnc1 show?
# output 3.39

###

# procedure summary: Pharmacokinetic determination in SD rats (i.v. and i.g.)
# Type: in vivo
# condition parameters: male, Sprague-Dawley (SD), rat, plasma, iv, 1 mg/kg
Each item that follows carries a reported AUC(0-t).
Please give a number only; it is taken to be in ng·h/mL.

> print(dat)
                                smiles.data  recorded.endpoint  readout.unit  test.result
1  O=C1c2ccc(Oc3c(Cl)cc(-n4ncc(=O)[nH]c4=O)cc3Cl)cc2CCN1c1cccc(F)c1           AUC(0-t)       ng·h/mL         1860
2  O=C1c2ccc(Oc3c(Cl)cc(-n4ncc(=O)[nH]c4=O)cc3Cl)cc2CCN1Cc1cccc(OC(F)(F)F)c1           AUC(0-t)       ng·h/mL        39800
3  O=C1c2ccc(Oc3c(Cl)cc(-n4ncc(=O)[nH]c4=O)cc3Cl)cc2CCN1c1ccc(F)cc1           AUC(0-t)       ng·h/mL         8730

Then this molecule:
# input Bench note: what AUC(0-t) did O=C1c2ccc(Oc3c(Cl)cc(-n4ncc(=O)[nH]c4=O)cc3Cl)cc2CCN1Cc1ccccn1 show?
# output 9810

###

# procedure summary: Pharmacokinetic determination in SD rats (i.v. and i.g.)
# Assay type: in vivo
# condition parameters: male, Sprague-Dawley (SD), rat, plasma, po, ig, 5 mg/kg
Each item that follows carries a reported half-life.
Please give a number only; it is taken to be in h.

Reference set, count: 6
> print(dat)
                                smiles.data  recorded.endpoint  readout.unit  test.result
1  O=C1c2ccc(Oc3c(Cl)cc(-n4ncc(=O)[nH]c4=O)cc3Cl)cc2CCN1c1cccc(F)c1          half-life             h         2.53
2  O=C1c2ccc(Oc3c(Cl)cc(-n4ncc(=O)[nH]c4=O)cc3Cl)cc2CCN1c1cccnc1          half-life             h         3.63
3  O=C1c2ccc(Oc3c(Cl)cc(-n4ncc(=O)[nH]c4=O)cc3Cl)cc2CCN1Cc1cccnc1          half-life             h         4.14
4  O=C1c2ccc(Oc3c(Cl)cc(-n4ncc(=O)[nH]c4=O)cc3Cl)cc2CCN1Cc1ccc(Cl)cc1          half-life             h          3.5
5  O=C1c2ccc(Oc3c(Cl)cc(-n4ncc(=O)[nH]c4=O)cc3Cl)cc2CCN1Cc1ccncc1          half-life             h         2.65
6  O=C1c2ccc(Oc3c(Cl)cc(-n4ncc(=O)[nH]c4=O)cc3Cl)cc2CCN1Cc1cccc(OC(F)(F)F)c1          half-life             h         15.7

# input Bench note: what half-life did O=C1c2ccc(Oc3c(Cl)cc(-n4ncc(=O)[nH]c4=O)cc3Cl)cc2CCN1Cc1ccc(C(F)(F)F)cc1 show?
# output 14.1

# input What do you have for O=C1c2ccc(Oc3c(Cl)cc(-n4ncc(=O)[nH]c4=O)cc3Cl)cc2CCN1Cc1cccc(C(F)(F)F)c1 ?
# output 7.67

# input What do you have for O=C1c2ccc(Oc3c(Cl)cc(-n4ncc(=O)[nH]c4=O)cc3Cl)cc2CCN1c1ccccc1F ?
# output 1.64

# input What do you have for Cc1ccc(CN2CCc3cc(Oc4c(Cl)cc(-n5ncc(=O)[nH]c5=O)cc4Cl)ccc3C2=O)cc1 ?
# output 1.44

# input What do you have for O=C1c2ccc(Oc3c(Cl)cc(-n4ncc(=O)[nH]c4=O)cc3Cl)cc2CCN1Cc1ccccn1 ?
# output 5.93

# input What do you have for O=C1c2ccc(Oc3c(Cl)cc(-n4ncc(=O)[nH]c4=O)cc3Cl)cc2CCN1Cc1ccc(F)cc1 ?
# output 3.57

# input What do you have for O=C1c2ccc(Oc3c(Cl)cc(-n4ncc(=O)[nH]c4=O)cc3Cl)cc2CCN1c1ccc(F)cc1 ?
# output 2.29
